system_tested: T1, CD81 (UniProt P60033 1-236, limits assumed)
T1 construct: whole, on cells; also called CD81 receptor
T1 sequence (looked up): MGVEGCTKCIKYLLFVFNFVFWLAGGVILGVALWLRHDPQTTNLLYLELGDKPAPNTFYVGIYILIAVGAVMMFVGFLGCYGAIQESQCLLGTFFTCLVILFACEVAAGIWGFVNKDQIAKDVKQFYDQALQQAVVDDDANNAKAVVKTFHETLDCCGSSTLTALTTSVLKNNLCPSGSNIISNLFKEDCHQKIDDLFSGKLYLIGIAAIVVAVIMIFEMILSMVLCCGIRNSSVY
test_summary: cell ELISA;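 further: antibody binding to HuH7 cells expressing CD81 versus a CD81-negative HuH7 control line, bound antibody detected by secondary reagent, absorbance at 450 nm with 620 nm reference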

>  <binder>
CD81K13 HC 04-hVH_1_69 / LC CD81K13 (antibody, V domains shown, human constant region) VH: EVQLVESGGGLVQPGRSLRLSCTASGFNFKDSYLHWVRQAPGQGLEWMGRIDTGNGNVKFDPKFQGRVTITADESTSTAYMELSSLRSEDTAVYYCVPYGYGFHSWGQGTLVTVSS VL: DIQMTQSPASLSVSVGETVTITCRASENIYRTLAWYLQKQGKSPQLLVYGATTLADGVPSRFSGSGSGTQYYLKINSLQSEDFGTYHCQHFWGTPWTFGGGTKVEIK

>  <ELISA data>
0.776

$$$$
>  <binder>
CD81K13 HC 5b-hVH_1_69-GA / LC 04-hVK_1_9 (antibody, V domains shown, human constant region) VH: QVQLVQSGAELVKPGSSVKVSCKASGFNFKDSYLHWVRQAPGQGLEWMGRIDTGNGNVKFDPKFQGRVTITTDESTSTAYMELSSLRSEDTAVYYCVPYGYGFHSWGQGTLVTVSS VL: DIQLTQSPSFLSASVGDRVTITCRASENIYRTLAWYQQKPGKAPKLLIYAATTLASGVPSRFSGSGSGTEFTLTISSLQPEDFGTYYCQHFWGTPWTFGQGTKVEIK

>  <ELISA data>
0.786

$$$$
